Where do the numbers come from? From PubChem BioAssay (NCI).

- Tested on: SK-MEL-5 melanoma
- experiment-notes: NCI-60 one-dose screen, 48 h (100 = growth as untreated, 0 = no growth, -100 = all killed)
- condition-details: 10 µM unless noted
About 83,000 compounds went through this panel and 20% of them were active in at least one assay; those are over-represented in the sample as a whole.
readout: growth (%)
Give just the number in %; leave the unit off.

Example entries and their recorded answers appear below.
[
  {
    "compound-structure-string": "CC(=O)Nc1ccc(-c2ccc3c(c2)NC(=O)/C3=C\\c2ccc[nH]2)cc1",
    "obs-value": 100
  },
  {
    "compound-structure-string": "O=C(CCN1CCCC1)Nc1ccc2c(NCc3ccccc3)c3ccccc3nc2c1",
    "obs-value": 17.2
  }
]

Return reported growth. Input compound: CNC(=O)c1cccc(Cn2nc(C)c(NC(=O)c3ccc(COc4ccc(C(F)(F)F)cc4C)cc3)c2C)n1
-6.19

Return reported growth. Input compound: O=C1Nc2cc(-c3ccc(NC(=O)c4ccccc4)cc3)ccc2/C1=C/c1ccc[nH]1
103

Return reported growth. Input compound: COc1cc(NC(=O)CSc2nc3ccc(C)cc3c(=O)n2Cc2ccccc2)cc(OC)c1OC
39.3

----------
- Test system: NCI-H322M lung
- experiment-notes: NCI-60 one-dose screen, 48 h (100 = growth as untreated, 0 = no growth, -100 = all killed)
- condition-details: 10 µM unless noted
This is part of a sample that, as a whole, favours compounds with a hit. Of some 83,000 tested, about 20% had one in any assay.
readout: growth (%)
Give just the number in %; leave the unit off.

Return reported growth. Input compound: COc1cc(OC)cc(C(=O)C[n+]2cccc3cc[nH]c32)c1
93.1

Return reported growth. Input compound: O=c1ccc(-c2nc(N3CCOCC3)c3ccccc3n2)c[nH]1
92.3

----------
- Tested on: M14 melanoma
- experiment-notes: NCI-60 one-dose screen, 48 h (100 = growth as untreated, 0 = no growth, -100 = all killed)
- condition-details: 10 µM unless noted
The panel holds about 83,000 compounds, 20% with a hit somewhere; the sample as a whole holds those more often. Activity calls are given as the source filed them. Rule for the calls: active = growth percent below 10; inactive = the rest.
readout: growth

Example entries and their recorded answers appear below.
[
  {
    "molecule": "Oc1c(Cl)cc(Cl)c(Cl)c1CNCCNCc1c(O)c(Cl)cc(Cl)c1Cl",
    "target": "M14 melanoma",
    "growth": "20.3% (inactive)"
  },
  {
    "molecule": "CCOC(=O)[C@@H](C)C[C@H](Cc1ccccc1)NC(=O)c1csc([C@@H](C[C@H](C(C)C)N(C)C(=O)[C@@H](NC(=O)[C@H]2C[C@H](O[Si](C)(C)C(C)(C)C)CCN2C)C(C)C)OC(C)=O)n1",
    "target": "M14 melanoma",
    "growth": "-42.2% [9.25 µM] (active)"
  },
  {
    "molecule": "O=C(C1CCC1)N1N=C(c2ccc(-n3ccc(C(F)(F)F)n3)cc2)CC1c1ccc[nH]1 (stereo not drawn)",
    "target": "M14 melanoma",
    "growth": "93.2% (inactive)"
  }
]

Return reported growth. Input molecule: O=S(=O)(NCCNc1nccc(-c2c(-c3cccc(F)c3)nc3sccn23)n1)c1ccc(Cl)cc1
56.6% (inactive)

Return reported growth. Input molecule: COc1ccc(-c2nc([C@@H](C)Sc3nc(N)cc(N)n3)c(C)s2)cc1OCCN1CCOCC1
114% (inactive)

Return reported growth. Input molecule: C/C(=N\NC(=O)CSc1nc2ccccc2c(=O)n1Cc1ccc(S(N)(=O)=O)cc1)c1ccc(F)cc1
107% (inactive)

Return reported growth. Input molecule: c1ccc(Cn2cnc3ccc(-c4nc(-c5ccc6c(c5)ncn6C5CCCCC5)cn5ccnc45)cc32)cc1
-4.44% (active)

Return reported growth. Input molecule: C#CCNC(=O)c1cccc2c1cc(C)n2-c1nc2c(c(NCc3ccccc3)n1)CCCC2
-39.2% (active)
